All values here come from paper PMC5910032.

Tested on: FITC-E2 scFv (wild-type)
method-description: fluorescein fluorescence quenching, titration of purified scFv
Format: binding
test-readout: EC50

Prompt: Identify measured EC50 associated with O=C1OC2(c3ccc(O)cc3Oc3cc(O)ccc32)c2ccccc21 [fluorescein]
Completion: 23 to 27 nM
